Parameter EC50: see the listing below.
Target: T1, full-length human OX40 expressed on HuT78 cells (HuT78/OX40) (human, UniProt P43489 29-277)
T1 sequence: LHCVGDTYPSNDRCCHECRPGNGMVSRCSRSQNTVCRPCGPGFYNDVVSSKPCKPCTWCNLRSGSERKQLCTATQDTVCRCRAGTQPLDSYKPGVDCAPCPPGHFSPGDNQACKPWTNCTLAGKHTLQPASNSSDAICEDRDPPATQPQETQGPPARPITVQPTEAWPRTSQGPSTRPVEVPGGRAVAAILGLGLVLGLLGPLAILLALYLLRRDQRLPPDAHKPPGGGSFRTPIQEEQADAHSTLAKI
Assay: FACS; cells not named on the sheet, HuT78/OX40 cells as in Example 5
A number alone suffices; assume µg/mL.

Reference set (2 entries):
| Binder | EC50, µg/mL |
| --- | --- |
| 445-1-2(S24G) (antibody, human IgG1, V domains shown) VH: QVQLVQSGAEVKKPGSSVKVSCKASGYKFTSYIIHWVRQAPGQGLEWMGYINPYNDGTRYNQKFQGRVTLTSDKSTSTAYMELSSLRSEDTAVYYCARGYYGSSYAMDYWGQGTTVTVSS VL: DIQMTQSPSSLSASVGDRVTITCGASQGISNYLNWYQQKPGKAIKLLIYDTSTLYSGVPSRFSGSGSGTDYTLTISSLQPEDFATYYCQQYSKLPYTFGGGTKVEIK | 0.307 |
| 445-1 (antibody, V domains shown) VH: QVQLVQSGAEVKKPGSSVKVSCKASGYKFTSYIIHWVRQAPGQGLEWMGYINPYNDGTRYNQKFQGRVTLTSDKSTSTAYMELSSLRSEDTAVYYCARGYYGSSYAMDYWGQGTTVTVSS VL: DIQMTQSPSSLSASVGDRVTITCSASQGISNYLNWYQQKPGKAIKLLIYDTSTLYSGVPSRFSGSGSGTDYTLTISSLQPEDFATYYCQQYSKLPYTFGGGTKVEIK | 0.336 |

Please examine the following record next.
Which EC50 reading was recorded for the binder 445-2(M48I)-1 (antibody, human IgG1, V domains shown) VH: QVQLVQSGAEVKKPGSSVKVSCKASGYKFTSYIIHWVRQAPGQGLEWIGYINPYNDGTRYNQKFQGRVTLTSDKSTSTAYMELSSLRSEDTAVYYCARGYYGSSYAMDYWGQGTTVTVSS VL: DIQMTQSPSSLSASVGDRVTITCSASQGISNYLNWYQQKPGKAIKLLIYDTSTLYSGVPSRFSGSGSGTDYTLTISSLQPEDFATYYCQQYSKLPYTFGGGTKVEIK ? 0.353

These measurements were taken from patent US20230011916A1.
